# assay_system: recombinant N-terminal MLH1 (residues 15-340) (Homo sapiens, UniProt P40692)
# Construct: recombinant N-terminal MLH1 (residues 15-340)
# assay_explanation: Fluorescence Polarisation Assay for MLH1
# condition_notes: 100 nM N-terminal MLH1, 5 nM probe compound
List of IC50 values.

| compound | IC50 |
| --- | --- |
| O=C(c1c(O)cc(C(F)F)cc1OCc1ccccc1)N1Cc2ccc(OC3CCNCC3)cc2C1 [Example 26] | < 0.1 µM |
| CN1CC[C@H](Oc2ccc3c(c2)CN(C(=O)c2c(O)cc(C(F)F)cc2OCc2ccccc2)C3)C1 [Example 4.56] | < 0.1 µM |
| N#Cc1cc(O)c(C(=O)N2Cc3cccc(NC4COC(=O)C4)c3C2)c(OCc2ccccc2)c1 (stereo not shown) [Example 10.19] | 0.1 to 1 µM |
| CN1CCC(Oc2ccc3c(c2)CN(C(=O)c2c(O)cc(C(F)F)cc2OCc2ccccc2)C3)CC1 [Example 4.32] | < 0.1 µM |
| COc1cc2c(c(N[C@@H]3CCOC3)c1)CN(C(=O)c1c(O)cc(Cl)cc1OCc1ccccc1)C2 [Example 10.1] | 1 to 10 µM |
| CN1CCN(CCOc2ccc3c(c2)CN(C(=O)c2c(O)cc(C(F)F)cc2OCc2ccccc2)C3)CC1 [Example 4.71] | 0.1 to 1 µM |
| CN1CC[C@@H](Nc2cccc3c2CN(C(=O)c2c(O)cc(C(F)F)cc2OCc2ccccc2)C3)C1=O [Example 4.14] | 0.1 to 1 µM |

====

# assay_system: recombinant N-terminal MLH1 (residues 15-340) (Homo sapiens)
# Construct: recombinant N-terminal MLH1 (residues 15-340)
# Sequence (P40692 15-340): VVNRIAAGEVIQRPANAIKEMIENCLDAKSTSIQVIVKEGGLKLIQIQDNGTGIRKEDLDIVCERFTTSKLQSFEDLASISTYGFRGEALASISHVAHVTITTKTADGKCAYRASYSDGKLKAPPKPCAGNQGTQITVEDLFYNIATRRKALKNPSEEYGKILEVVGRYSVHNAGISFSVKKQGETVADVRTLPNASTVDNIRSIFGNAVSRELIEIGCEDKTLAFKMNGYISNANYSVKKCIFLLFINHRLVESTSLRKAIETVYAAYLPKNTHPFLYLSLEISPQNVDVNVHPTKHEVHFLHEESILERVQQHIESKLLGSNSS
# assay_explanation: Fluorescence Polarisation Assay for MLH1
# condition_notes: 100 nM N-terminal MLH1, 5 nM probe compound
List of IC50 values.

| molecule | IC50 |
| --- | --- |
| N#Cc1cc(O)c(C(=O)N2Cc3cccc(NC4COC4)c3C2)c(OCc2ccccn2)c1 | 1 to 10 µM |
| CN1CC[C@H](Oc2ccc3c(c2)CCN(C(=O)c2c(O)cc(C(F)F)cc2OCc2ccccc2)C3)C1 | 0.1 to 1 µM |
| O=C(c1c(O)cc(C(F)F)cc1OCc1ccccc1)N1CCc2cnccc21 | 1 to 10 µM |
| CN(C)CCOc1nc2c(c(NC3CCOC3)n1)CN(C(=O)c1c(O)cc(C(F)F)cc1OCc1ccccc1)CC2 (centres unmarked) | 0.1 to 1 µM |
| CN1CCC(Oc2cc3c(c(N[C@H]4CCOC4)c2)CN(C(=O)c2c(O)cc(C(F)F)cc2OCc2ccccc2)C3)CC1 | < 0.1 µM |
| COc1ccc2c(c1)CN(C(=O)c1c(O)cc(C#N)cc1OCc1ccccc1)C2 | 1 to 10 µM |
| O=C(c1c(O)cc(F)cc1OCc1ccccc1)N1Cc2cccc(N[C@H]3CCOC3)c2C1 | 0.1 to 1 µM |
| O=C(c1c(O)cc(C(F)F)cc1OCc1ccccc1)N1CCc2c(NC3CCOC3)cccc21 (centres unmarked) | 1 to 10 µM |
| CN1CC(Nc2cccc3c2CN(C(=O)c2c(O)cc(Cl)cc2OCc2ccccc2)C3)C1 | 0.1 to 1 µM |
| CC(=O)N1CC(Nc2cccc3c2CN(C(=O)c2c(O)cc(C#N)cc2OCc2ccccc2)C3)C1 | 0.1 to 1 µM |
| CN(C)CCOc1cc2c(c(N[C@H]3CCOC3)c1)CN(C(=O)c1c(O)cc(Cl)cc1OCc1ccccc1)CC2 | < 0.1 µM |
| COc1ccc2c(c1)CN(C(=O)c1c(O)cc(C(F)F)cc1OCc1ccccc1)CC2 | 1 to 10 µM |
| CN1CCC(Oc2ccc3c(c2)CN(C(=O)c2c(O)cc(F)cc2OCc2ccccc2)C3)CC1 | 0.1 to 1 µM |
| CN(C)CCOc1cc2c(c(N[C@@H]3CCOC3)c1)CN(C(=O)c1c(O)cc(Cl)cc1OCc1ccccc1)CC2 | < 0.1 µM |
